Test system: T. b. brucei
Assay: In vitro antitrypanosomal activity against T. brucei (growth inhibition)
Type: cell-based, Trypanosoma brucei
Details: Trypanosoma brucei, Table 7; read-out: T. brucei EC50
observationType: EC50 (nM)

compound="O=C(Nc1ccc2sc(-c3ccc(F)c(F)c3)nc2c1)N1CCCC1 [Compound 2]" reported=91.8
compound="O=C(Nc1ccc2oc(-c3ccccc3)nc2c1)N1CCCC1 [Compound 8, 2-Phenyl-5-N-pyrrolidylamidobenzoxazole]" reported=5250
compound="O=C(Nc1ccc2sc(-c3ccccc3)nc2c1)N1CCCC1 [Compound 7]" reported=325
compound="O=C(Nc1ccc2sc(-c3cccc(F)c3F)nc2c1)N1CCCC1 [Compound 5]" reported=183
compound="O=C(Nc1ccc2sc(-c3cccc(F)c3)nc2c1)N1CCCC1 [Compound 6]" reported=158
